- TARGET_SYSTEM: LSD2 (Homo sapiens)
- Sequence (Q8NB78 whole entry): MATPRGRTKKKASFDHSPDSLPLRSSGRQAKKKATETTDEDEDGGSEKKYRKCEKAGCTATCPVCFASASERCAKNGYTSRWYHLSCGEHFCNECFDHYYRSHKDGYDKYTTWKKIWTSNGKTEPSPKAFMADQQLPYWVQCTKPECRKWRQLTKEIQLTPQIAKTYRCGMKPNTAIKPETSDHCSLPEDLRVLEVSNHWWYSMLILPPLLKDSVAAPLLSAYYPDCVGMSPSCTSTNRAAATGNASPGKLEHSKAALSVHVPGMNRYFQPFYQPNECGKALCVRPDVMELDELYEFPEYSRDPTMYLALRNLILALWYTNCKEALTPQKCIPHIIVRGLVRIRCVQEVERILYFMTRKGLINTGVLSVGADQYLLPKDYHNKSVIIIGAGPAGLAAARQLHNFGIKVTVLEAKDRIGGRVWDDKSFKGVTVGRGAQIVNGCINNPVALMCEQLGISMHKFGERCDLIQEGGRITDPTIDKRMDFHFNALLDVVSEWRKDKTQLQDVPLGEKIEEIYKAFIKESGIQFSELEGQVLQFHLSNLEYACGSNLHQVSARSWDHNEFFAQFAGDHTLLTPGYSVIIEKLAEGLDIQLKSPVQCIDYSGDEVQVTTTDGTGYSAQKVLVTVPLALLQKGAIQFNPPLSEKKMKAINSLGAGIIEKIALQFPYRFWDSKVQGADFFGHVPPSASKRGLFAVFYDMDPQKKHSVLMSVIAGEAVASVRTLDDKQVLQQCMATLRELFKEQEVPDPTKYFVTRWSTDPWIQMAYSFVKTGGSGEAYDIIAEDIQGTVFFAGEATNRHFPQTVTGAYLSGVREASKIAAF
- ASSAY_EXPLANATION: LSD2 A-screen (AlphaScreen) demethylase enzymatic assay
- Format: biochemical
- PROTOCOL_CONDITIONS: 50 μM compound; approximate values; read-out: Potency LSD-2 % Inhibition at 50 μM
VALUE_KIND: inhibition at 50 µM (%)

{"MOLECULE": "CCn1cc(C(=O)O)c(=O)c2c(N)cc(NCCCc3ccccc3)cc21", "inhibition at 50 µM, %": 42}
{"MOLECULE": "CCn1cc(C(=O)O)c(=O)c2c(N)c(F)c(N[C@H]3CC[C@H](N[C@@H]4C[C@H]4c4ccccc4)CC3)cc21 (relative stereo)", "inhibition at 50 µM, %": 45}

[a] CCn1cc(C(=O)O)c(=O)c2c(N)c(F)c(NCCc3ccccc3)cc21
[b] Nc1c(F)c(N[C@@H]2C[C@H]2c2ccccc2)c(F)c2c1c(=O)c(C(=O)O)cn2C1CC1 (relative stereo)
# return whichever of a and b has the smaller inhibition at 50 µM To answer, give the label that identifies your chosen option.
a
(a: 1%, b: 36%)
